# studyTarget: YFP-HA-βlac-DAT (Homo sapiens)
# testMethodNotes: β-lactamase (βlac) surface expression assay
# Type: cell-based
# conditionParameters: HEK293, read-out: EMax (%), WT DAT surface expression, HEK cells expressing YFP-HA-βlac-DAT, overnight (16 h) incubation, up to 100 μM, normalized to vehicle; assumed effective EMax
Counter-ions that a name gives are not always drawn.
outcomeMeasure: Emax

Incoming: Which measured Emax value corresponds to CCC1CC2CC3c4[nH]c5ccc(O)cc5c4CCN(C2)C13 (stereo not shown) [Noribogaine, reference compound] ?
Outgoing: 251%

Incoming: How about CC(CNC(C)(C)C)C(=O)c1cccc(Cl)c1 (stereo not shown) ?
Outgoing: 36%

Incoming: How about CN1CCc2[nH]c3ccc(F)cc3c2CC1 ?
Outgoing: 219%

Incoming: How about COc1ccc2[nH]c3c(c2c1)CCNC3 [Pinoline, pinoline, reference compound] ?
Outgoing: 141%

Incoming: How about COc1ccc2c3c([nH]c2c1)C(C)NCC3 (stereo not shown) [Tetrahydroharmine, tetrahydroharmine] ?
Outgoing: 137%

Incoming: How about CC[C@H]1C[C@@H]2C[C@H]3c4[nH]c5ccccc5c4CCN(C2)[C@@H]13 [Ibogamine, reference compound] ?
Outgoing: 202%

Incoming: How about CN[C@@H]1CCc2[nH]c3ccc(C(N)=O)cc3c2C1 [Frovatriptan, frovatriptan, reference compound] ?
Outgoing: 103%

Incoming: How about Cc1ccc(C23CNCC2C3)cc1 (stereo not shown) ?
Outgoing: 149%

Incoming: How about CC(NC(C)(C)C)C(=O)c1cccc(Cl)c1 (stereo not shown) [Bupropion, Bupropion hydrochloride, reference compound] ?
Outgoing: 144%

Incoming: How about CC1NC(C)(C)COC1(O)c1cccc(Cl)c1 (stereo not shown) [6-Hydroxybupropion, 6-hydroxybupropion, reference compound] ?
Outgoing: 148%

====

So I've got a bunch of compounds here, and I need their Emax values.
# studyTarget: YFP-HA-βlac-DAT (Homo sapiens, UniProt Q01959)
# Sequence (Q01959 1-171 limits assumed): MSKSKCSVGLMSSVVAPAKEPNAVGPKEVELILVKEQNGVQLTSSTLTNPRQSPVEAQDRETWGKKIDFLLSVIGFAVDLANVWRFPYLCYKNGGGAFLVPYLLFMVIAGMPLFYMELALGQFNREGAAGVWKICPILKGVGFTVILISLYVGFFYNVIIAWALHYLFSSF
# Sequence (Q01959 237-620 limits assumed): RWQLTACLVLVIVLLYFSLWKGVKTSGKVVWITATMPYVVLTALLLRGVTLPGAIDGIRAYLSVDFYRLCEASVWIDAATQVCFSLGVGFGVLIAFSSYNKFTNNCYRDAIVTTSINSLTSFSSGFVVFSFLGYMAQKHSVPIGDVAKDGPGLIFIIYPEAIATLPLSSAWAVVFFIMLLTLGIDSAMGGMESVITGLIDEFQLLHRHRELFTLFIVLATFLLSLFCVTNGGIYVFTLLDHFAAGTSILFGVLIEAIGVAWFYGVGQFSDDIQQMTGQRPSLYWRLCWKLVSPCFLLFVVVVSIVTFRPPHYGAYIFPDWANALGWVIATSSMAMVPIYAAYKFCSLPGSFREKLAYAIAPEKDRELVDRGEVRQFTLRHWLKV
# testMethodNotes: β-lactamase (βlac) surface expression assay
# Assay type: cell-based
# conditionParameters: HEK293, HEK cells expressing YFP-HA-βlac-DAT, overnight (16 h) incubation, up to 100 μM, normalized to vehicle; assumed effective EMax; read-out: EMax (%), WT DAT surface expression
Expressed in %, but write only the number.

Incoming: Emax of CC(C(=O)c1cccc(Cl)c1)N1CCCCC1 (centres unmarked) on YFP-HA-βlac-DAT (Homo sapiens, UniProt Q01959)?
Outgoing: 102

Incoming: How about CC(C)N(CCc1c[nH]c2cccc(O)c12)C(C)C ?
Outgoing: 127

Incoming: How about CC(NC(C)(C)C)C(=O)c1ccc(Cl)cc1 (centres unmarked) ?
Outgoing: 113

Incoming: How about Cc1cccc(C(=O)C(C)NC(C)(C)C)c1 (centres unmarked) ?
Outgoing: 134

Incoming: How about C[C@H](NC1CCC1)C(=O)c1cccc(Cl)c1 ?
Outgoing: 98

Incoming: How about CC1NC(C)(C)COC1(O)c1cc(F)cc(F)c1 (centres unmarked) ?
Outgoing: 122

Incoming: How about CC(C(=O)c1cccc(Cl)c1)N(C)C(C)(C)C (centres unmarked) ?
Outgoing: 87

Incoming: How about CC1NCCOC1c1cccc(Cl)c1 (centres unmarked) ?
Outgoing: 166

Incoming: How about Cc1ccc(C(=O)C(C)NC(C)(C)C)cc1Cl (centres unmarked) ?
Outgoing: 147

Incoming: How about NCCc1c[nH]c2ccccc12 [Tryptamine, tryptamine, reference compound] ?
Outgoing: 104

Incoming: How about COc1ccc2c3c([nH]c2c1)CCN(C)CC3 ?
Outgoing: 179

Incoming: How about CCC(NC(C)(C)C)C(=O)c1cccc(Cl)c1 (centres unmarked) ?
Outgoing: 131

Incoming: How about CNC(C)C(=O)c1cccc(C)c1 (centres unmarked) ?
Outgoing: 105

Incoming: How about CC(NC(C)(C)C)C(=O)c1ccc(Cl)c(Cl)c1 (centres unmarked) ?
Outgoing: 110

Incoming: How about CC(NC(C)(C)C)C(=O)c1ccc(Br)cc1 (centres unmarked) ?
Outgoing: 127

Incoming: How about CC(NC1CCC1)C(=O)c1ccccc1 (centres unmarked) ?
Outgoing: 114

Incoming: How about COc1cccc(C(=O)C(C)NC(C)(C)C)c1 (centres unmarked) ?
Outgoing: 91

Incoming: How about CC(NC1CC1)C(=O)c1cccc(Cl)c1 (centres unmarked) ?
Outgoing: 93

Incoming: How about Cc1ccc(C(=O)C(C)N(C)Cc2ccccc2)cc1 (centres unmarked) ?
Outgoing: 85

Incoming: How about COc1cccc(C(=O)C(C)NC2CC2)c1 (centres unmarked) ?
Outgoing: 93

Incoming: How about CC(NC(C)(C)C)C(=O)c1cccc(Br)c1 (centres unmarked) ?
Outgoing: 161

Incoming: How about CC(NC(C)(C)C)C(=O)c1cccc(F)c1 (centres unmarked) ?
Outgoing: 100

Incoming: How about Cc1ccc(C(=O)C(C)NC(C)(C)C)cc1 (centres unmarked) ?
Outgoing: 140

====

# studyTarget: UniProt Q01959
# testMethodNotes: β-lactamase (βlac) surface expression assay
# Type: cell-based
# conditionParameters: HEK293, HEK cells expressing YFP-HA-βlac-DAT, overnight (16 h) incubation, up to 100 μM, normalized to vehicle; assumed effective EMax; read-out: EMax (%), WT DAT surface expression
# Procedure: The βlac surface expression assay was performed by following the method outlined in [Lam et al. (2013)] and [Beerepoot et al. (2015], [2016)]. […] After removal of the final PBS wash, 200 μL of the nitrocefin solution was added to each well and the absorbance was immediately read. The EPOCH microplate spectrophotometer (BioTek) was used to measure absorbance (486 nm) for each well every minute for 30 min. […] For additional measure, nitrocefin was added and the absorbance was read. […]
So I've got a bunch of molecules here, and I need their Emax values.
Expressed in %, but write only the number.

Incoming: Which measured Emax value corresponds to CC(NC1CCC1)C(=O)c1cccc(F)c1 (centres unmarked) [PAL-1008] ?
Outgoing: 96

Incoming: How about CC1NC(C)(C)COC1(O)c1cc(Cl)cc(Cl)c1 (centres unmarked) [RTI-21] ?
Outgoing: 103

Incoming: How about CC(NC1CC1)C(=O)c1cccc(C(F)(F)F)c1 (centres unmarked) [PAL-1178] ?
Outgoing: 92

Incoming: How about CCCC(NC(C)(C)C)C(=O)c1cccc(Cl)c1 (centres unmarked) [RTI-12] ?
Outgoing: 113

Incoming: How about CC(NC1CCC1)C(=O)c1ccc2c(c1)OCO2 (centres unmarked) [PAL-1414] ?
Outgoing: 102

Incoming: How about COc1ccc2[nH]c3c(c2c1)CCN(C)CC3 [Ibogainealog, ibogainealog] ?
Outgoing: 169

Incoming: How about CC(NC1CCC1)C(=O)c1cccc(Cl)c1 (centres unmarked) [PAL-1007] ?
Outgoing: 136

Incoming: How about CC(C(=O)c1cccc(Cl)c1)N(C)C (centres unmarked) [RTI-8] ?
Outgoing: 107

Incoming: How about CC(NC(C)(C)C)C(=O)c1cc(Cl)cc(Cl)c1 (centres unmarked) [RTI-17] ?
Outgoing: 78

Incoming: How about CC(NC1CC1)C(=O)c1ccc(F)c(Cl)c1 (centres unmarked) [PAL-819] ?
Outgoing: 90

Incoming: How about CC(C)NC(C)C(=O)c1cccc(Cl)c1 (centres unmarked) [PAL-1467] ?
Outgoing: 100

Incoming: How about CC(NC(C)(C)C)C(=O)c1ccccc1 (centres unmarked) [PAL-1463] ?
Outgoing: 117

Incoming: How about Cc1ccc(C(=O)C(C)N)cc1 (centres unmarked) [PAL-1270] ?
Outgoing: 104

Incoming: How about C[C@@H](NC1CCC1)C(=O)c1cccc(Cl)c1 [PAL-1132] ?
Outgoing: 110

Incoming: How about CC(Cc1cccc(Cl)c1)NC(C)(C)C (centres unmarked) [PAL-1468] ?
Outgoing: 117

Incoming: How about CCCN(CCC)CCc1c[nH]c2ccc(OC)cc12 [PAL-709] ?
Outgoing: 97

Incoming: How about CC(NC1CCC1)C(=O)c1c[nH]c2ccccc12 (centres unmarked) [PAL-1407] ?
Outgoing: 98
